- Tested on: anesthetised dogs
- test.description: Haemodynamic effects on anesthetised dogs
- Format: in vivo, dogs (labrador/harrier cross)
- stated.conditions: dogs, 10 mg/kg i.v.
Where a name gives a salt, the structure may show the parent alone.
observable: BPs (min), period of action

Provide the reported BPs (min), period of action of each entry below, same order.
1. CSCC[C@H](NC(=O)OC(C)(C)C)C(=O)N[C@H]1CO[C@H]2[C@@H]1OC[C@H]2O[N+](=O)[O-] [Compound 43]
2. NCC(=O)N[C@H]1CO[C@H]2[C@@H]1OC[C@H]2O[N+](=O)[O-] [Compound 16, monohydrochloride]
3. CC(=O)NCSC[C@H](N)C(=O)N[C@H]1CO[C@H]2[C@@H]1OC[C@H]2O[N+](=O)[O-] [Compound 42, monohydrochloride]
4. CC(C)(C)OC(=O)N1CSC[C@H]1C(=O)NCC(=O)O[C@H]1CO[C@H]2[C@@H]1OC[C@H]2O[N+](=O)[O-] [Compound 72]
5. CC(C)(C)OC(=O)N1CSC[C@H]1C(=O)O[C@H]1CO[C@H]2[C@@H]1OC[C@H]2O[N+](=O)[O-] [Compound 18]

90 min
> 30 min
> 90 min
0 min
> 30 min

---

- Test system: anesthetised dogs
- test.description: Haemodynamic effects on anesthetised dogs
- Format: in vivo, dogs (labrador/harrier cross)
- stated.conditions: dogs, 10 mg/kg i.v.
Counter-ions that a name gives are not always drawn.
Give BPs (min), period of action for every item shown.

As a guide, the following entries are already answered.
{"molecule": "CC(=O)NCSC[C@H](NC(=O)OC(C)(C)C)C(=O)O[C@@H]1CO[C@H]2[C@@H]1OC[C@@H]2O[N+](=O)[O-]", "BPs (min), period of action": "> 90 min"}
{"molecule": "CSCC[C@H](NC(=O)OC(C)(C)C)C(=O)N[C@H]1CO[C@H]2[C@@H]1OC[C@@H]2O[N+](=O)[O-]", "BPs (min), period of action": "> 90 min"}

Can you look up the measured BPs (min), period of action of O=C(O[C@H]1CO[C@H]2[C@@H]1OC[C@H]2O[N+](=O)[O-])[C@@H]1CSCN1 [Compound 19, monohydrochloride] for me?
> 60 min
